- Test system: FU100
- PROTOCOL CONDITIONS: without S9 activation (−); FU100; 2 h exposure
PROPERTY: Results (5-FU assay)

# count of solved cases: 4
# COMPOUND, TARGET OR TEST SYSTEM, PROPERTY, RESULT
data = [
    ("CCCCCCCCCCCCOS(=O)(=O)[O-].[Na+] [Sodium Dodecyl Sulfate]", "FU100", "Results (5-FU assay)", "Neg"),
    ("ClCc1ccccc1 [Benzyl Chloride]", "FU100", "Results (5-FU assay)", "Pos"),
    ("CCC1CO1 (stereo not shown)", "FU100", "Results (5-FU assay)", "Pos"),
    ("Cl.Nc1c2ccccc2nc2ccccc12.O [9-Aminoacridine•HCl•H2O]", "FU100", "Results (5-FU assay)", "Pos"),
]

Given the compound [N-]=[N+]=[N-] [Sodium Azide] , what is its reported Results (5-FU assay)?
Pos^w

Given the compound `Cc1cccc(Nc2cc(Cl)nc(SCC(=O)O)n2)c1C` , what is its reported Results (5-FU assay)?
Neg

Given the compound `C[C@H](CCC(=O)O)[C@H]1CC[C@H]2[C@@H]3CC[C@@H]4C[C@H](O)CC[C@]4(C)[C@H]3CC[C@]12C` , what is its reported Results (5-FU assay)?
Neg

Given the compound `O=[N+]([O-])c1ccc(O)cc1` , what is its reported Results (5-FU assay)?
Neg

Given the compound `CN(C)N=O` , what is its reported Results (5-FU assay)?
Neg

Given the compound `COC(=O)[C@H]1[C@H]2C[C@@H]3c4[nH]c5cc(OC)ccc5c4CCN3C[C@H]2C[C@@H](OC(=O)c2cc(OC)c(OC)c(OC)c2)[C@@H]1OC` , what is its reported Results (5-FU assay)?
Neg
